assay: qHTS of pediatric cancer cell lines to identify multiple opportunities for drug repurposing: Primary screen for OHS-50 cells (AID 1347103); settings: OHS-50 osteosarcoma viability, CellTiter-Glo luminescence, 48 h; series mostly up to 57.3 µM; also: nearly all actives have a fitted effect of over 40% in size
Records with an inconclusive call do not appear. Active and inactive are the calls of the source. Calls follow the shape of the dose curve; as a rule, active = well fitted cell-killing curve with a large enough effect; inconclusive = small, poorly fitted or top-dose-only effect; inactive = no such curve, though single readings can be large or run the other way.
Hi there, use one of these labels in your reply, thanks! true (1) = active, false (0) = inactive

How did this test come out for "COc1cc2c(Nc3ccc(Cl)c(Cl)c3F)ncnc2cc1OCC1C[C@@H]2CN(C)C[C@H]2C1" ?
true (1)

Please indicate how the test categorized "O=C(NNC(=O)c1ccc(CNS(=O)(=O)c2ccc(F)c(Cl)c2)cc1)c1ccccc1" .
false (0)

Call for entry "NC(=O)N1CCC(CC(=O)N2CCC([C@H]3c4ncc(Br)cc4CCc4cc(Cl)cc(Br)c43)CC2)CC1" :
true (1)

Entry "N#CNC(=NCCCCCCOc1ccc(Cl)cc1)Nc1ccncc1" : call = ?
true (1)

Per the assay record, what outcome was assigned to "CN(C)CCN1C(=O)c2cccc3cc(N)cc(c23)C1=O" ?
true (1)

Assay result, entry "CC(C)(O)CC[C@@H](O)[C@](C)(O)[C@H]1CC[C@@]2(O)C3=CC(=O)[C@@H]4C[C@@H](O)[C@@H](O)C[C@]4(C)[C@@H]3CC[C@]12C" — outcome?
false (0)

Please indicate how the test categorized "CCN(CC)CCNC(=O)c1c(C)[nH]c(C=C2C(=O)Nc3ccc(F)cc32)c1C" .
true (1)

So what was the verdict on "Cc1cc(O)c2c(c1)C(=O)c1cccc(O)c1C2=O" in this test?
false (0)

Could you check what this test reported for Cc1ccccc1C(=O)Nc1ccc(C(=O)N2CCCC(O)c3cc(Cl)ccc32)c(C)c1 (centres undefined) ?
false (0)
